B1: HDV Ribozyme (parent)
chain: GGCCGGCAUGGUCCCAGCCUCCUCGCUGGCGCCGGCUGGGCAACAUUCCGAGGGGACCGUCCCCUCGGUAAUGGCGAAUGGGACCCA

Variants of: B1
TEST_METHOD_NOTES: self-cleavage, relative activity (ratio to wild type); higher = more cleavage; co-transcriptional
Below: a set of entries, each annotated with reported self-cleavage.
MEASUREMENT_TYPE: self-cleavage

- VARIANT_NOTATION: "G54A A87G"
  MEASUREMENT_TYPE: "self-cleavage"
  REPORTED_MEASUREMENT: 0.877
- VARIANT_NOTATION: "G35A G52A"
  MEASUREMENT_TYPE: "self-cleavage"
  REPORTED_MEASUREMENT: 0.47
- VARIANT_NOTATION: "G38A U79A"
  MEASUREMENT_TYPE: "self-cleavage"
  REPORTED_MEASUREMENT: 0.0831
- VARIANT_NOTATION: "C30G G34U"
  MEASUREMENT_TYPE: "self-cleavage"
  REPORTED_MEASUREMENT: 0.0449
- VARIANT_NOTATION: "C14G C86G"
  MEASUREMENT_TYPE: "self-cleavage"
  REPORTED_MEASUREMENT: 0.604
- VARIANT_NOTATION: "G2C A16U"
  MEASUREMENT_TYPE: "self-cleavage"
  REPORTED_MEASUREMENT: 0.0282
- VARIANT_NOTATION: "G53U G55C"
  MEASUREMENT_TYPE: "self-cleavage"
  REPORTED_MEASUREMENT: 1.01
- VARIANT_NOTATION: "G34A G38U"
  MEASUREMENT_TYPE: "self-cleavage"
  REPORTED_MEASUREMENT: 0.138
- VARIANT_NOTATION: "U9C A16C"
  MEASUREMENT_TYPE: "self-cleavage"
  REPORTED_MEASUREMENT: 0.519
- VARIANT_NOTATION: "G38C G68U"
  MEASUREMENT_TYPE: "self-cleavage"
  REPORTED_MEASUREMENT: 0.272
- VARIANT_NOTATION: "C14G C66A"
  MEASUREMENT_TYPE: "self-cleavage"
  REPORTED_MEASUREMENT: 0.665
- VARIANT_NOTATION: "C66A C85A"
  MEASUREMENT_TYPE: "self-cleavage"
  REPORTED_MEASUREMENT: 0.939
- VARIANT_NOTATION: "U46A C62A"
  MEASUREMENT_TYPE: "self-cleavage"
  REPORTED_MEASUREMENT: 0.543
- VARIANT_NOTATION: "C19U U20G"
  MEASUREMENT_TYPE: "self-cleavage"
  REPORTED_MEASUREMENT: 0.0594
- VARIANT_NOTATION: "G2C A71G"
  MEASUREMENT_TYPE: "self-cleavage"
  REPORTED_MEASUREMENT: 0.021
- VARIANT_NOTATION: "U23A C49G"
  MEASUREMENT_TYPE: "self-cleavage"
  REPORTED_MEASUREMENT: 1.16
- VARIANT_NOTATION: "U27A A78U"
  MEASUREMENT_TYPE: "self-cleavage"
  REPORTED_MEASUREMENT: 0.256
- VARIANT_NOTATION: "U20A U23G"
  MEASUREMENT_TYPE: "self-cleavage"
  REPORTED_MEASUREMENT: 0
- VARIANT_NOTATION: "C63G G67A"
  MEASUREMENT_TYPE: "self-cleavage"
  REPORTED_MEASUREMENT: 0.372
- VARIANT_NOTATION: "U23A C24G"
  MEASUREMENT_TYPE: "self-cleavage"
  REPORTED_MEASUREMENT: 0.113
- VARIANT_NOTATION: "C44G C62U"
  MEASUREMENT_TYPE: "self-cleavage"
  REPORTED_MEASUREMENT: 0.758
- VARIANT_NOTATION: "U23C C75A"
  MEASUREMENT_TYPE: "self-cleavage"
  REPORTED_MEASUREMENT: 0.166
